tested on: 485368-065-R3-J5-PDC spheroids with HUVEC/MSC, viability; assay: Anticancer human tumor 485368-065-R3-J5-PDC patient-derived pancreatic carcinoma cell line growth inhibition [RAS]; settings: second compound 0.3 µM; first compound 10 µM; stronger effect = lower value;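 further: spheroids exposed to agents for seven days before readout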
Value kind: viability, T/C (%)

>>> reported_value("CC(Nc1ccc2c(c1)OCCn1cc(N3C(=O)OCC3C(F)F)nc1-2)C(N)=O (configuration not stated) + CCn1c(-c2cccnc2C(C)OC)c2c3cc(ccc31)N1CCOC(CC(NC(=O)C(C(C)C)N(C)C(=O)C3(F)CCN(C(=O)C#CC(C)(C)N(C)C)CC3)C(=O)N3CCCC(N3)C(=O)OCC(C)(C)C2)C1")
71.8
>>> reported_value("CCC(CC)c1cc(NC2CCC(N)C2)n2nccc2n1 (configuration not stated) + CCn1c(-c2cccnc2C(C)OC)c2c3cc(ccc31)N1CCOC(CC(NC(=O)C(C(C)C)N(C)C(=O)C3(F)CCN(C(=O)C#CC(C)(C)N(C)C)CC3)C(=O)N3CCCC(N3)C(=O)OCC(C)(C)C2)C1")
9.84
>>> reported_value("CC(=O)OC12COC1CC(O)C1(C)C(=O)C(O)C3=C(C)C(OC(=O)C(O)C(NC(=O)OC(C)(C)C)c4ccccc4)CC(O)(C(OC(=O)c4ccccc4)C21)C3(C)C (configuration not stated) + CCn1c(-c2cc(N3CCN(C)CC3)cnc2C(C)OC)c2c3cc(ccc31)-c1csc(n1)CC(NC(=O)C1CC1C)C(=O)N1CCCC(N1)C(=O)OCC(C)(C)C2")
6.81
>>> reported_value("CCC(CC)c1cc(NC2CCC(N)C2)n2nccc2n1 (configuration not stated) + CCn1c(-c2cc(N3CCN(C)CC3)cnc2C(C)OC)c2c3cc(ccc31)-c1csc(n1)CC(NC(=O)C1CC1C)C(=O)N1CCCC(N1)C(=O)OCC(C)(C)C2")
4.74
>>> reported_value("CC1(O)CCCC1n1c(=O)c(C(F)F)cc2cnc(NC3CCN(S(C)(=O)=O)CC3)nc21 (configuration not stated) + CCn1c(-c2cc(N3CCN(C)CC3)cnc2C(C)OC)c2c3cc(ccc31)-c1csc(n1)CC(NC(=O)C1CC1C)C(=O)N1CCCC(N1)C(=O)OCC(C)(C)C2")
7.54
>>> reported_value("Cc1nc(N2CCC3(CC2)COC(C)C3N)c(CO)nc1Sc1ccnc(N)c1Cl (configuration not stated) + CCn1c(-c2cc(N3CCN(C)CC3)cnc2C(C)OC)c2c3cc(ccc31)-c1csc(n1)CC(NC(=O)C1CC1C)C(=O)N1CCCC(N1)C(=O)OCC(C)(C)C2")
0.68
>>> reported_value("NC1c2ccccc2OC12CCN(c1cnc3c(N4CCCc5ncccc54)n[nH]c3n1)CC2 (configuration not stated) + CCn1c(-c2cccnc2C(C)OC)c2c3cc(ccc31)N1CCOC(CC(NC(=O)C(C(C)C)N(C)C(=O)C3(F)CCN(C(=O)C#CC(C)(C)N(C)C)CC3)C(=O)N3CCCC(N3)C(=O)OCC(C)(C)C2)C1")
69.7
>>> reported_value("Cc1nc(N2CCC3(CC2)COC(C)C3N)c(CO)nc1Sc1ccnc(N)c1Cl (configuration not stated) + CCn1c(-c2cccnc2C(C)OC)c2c3cc(ccc31)N1CCOC(CC(NC(=O)C(C(C)C)N(C)C(=O)C3(F)CCN(C(=O)C#CC(C)(C)N(C)C)CC3)C(=O)N3CCCC(N3)C(=O)OCC(C)(C)C2)C1")
63.3
>>> reported_value("CC(C)NCC(C(=O)N1CCN(c2ncnc3c2C(C)CC3O)CC1)c1ccc(Cl)cc1 (configuration not stated) + CCn1c(-c2cc(N3CCN(C)CC3)cnc2C(C)OC)c2c3cc(ccc31)-c1csc(n1)CC(NC(=O)C1CC1C)C(=O)N1CCCC(N1)C(=O)OCC(C)(C)C2")
5.13
>>> reported_value("C[C@@H](NC(=O)c1ncnc(N)c1Cl)c1ncc(C(=O)Nc2cc(C(F)(F)F)c(Cl)cn2)s1 + CCn1c(-c2cccnc2C(C)OC)c2c3cc(ccc31)N1CCOC(CC(NC(=O)C(C(C)C)N(C)C(=O)C3(F)CCN(C(=O)C#CC(C)(C)N(C)C)CC3)C(=O)N3CCCC(N3)C(=O)OCC(C)(C)C2)C1")
79.2
>>> reported_value("CC(=O)OC12COC1CC(O)C1(C)C(=O)C(O)C3=C(C)C(OC(=O)C(O)C(NC(=O)OC(C)(C)C)c4ccccc4)CC(O)(C(OC(=O)c4ccccc4)C21)C3(C)C (configuration not stated) + CCn1c(-c2cccnc2C(C)OC)c2c3cc(ccc31)N1CCOC(CC(NC(=O)C(C(C)C)N(C)C(=O)C3(F)CCN(C(=O)C#CC(C)(C)N(C)C)CC3)C(=O)N3CCCC(N3)C(=O)OCC(C)(C)C2)C1")
27.5
>>> reported_value("NC1c2ccccc2OC12CCN(c1cnc3c(N4CCCc5ncccc54)n[nH]c3n1)CC2 (configuration not stated) + CCn1c(-c2cc(N3CCN(C)CC3)cnc2C(C)OC)c2c3cc(ccc31)-c1csc(n1)CC(NC(=O)C1CC1C)C(=O)N1CCCC(N1)C(=O)OCC(C)(C)C2")
0.53
